- test-system: UniProt:P24723
- Sequence (P24723 whole entry): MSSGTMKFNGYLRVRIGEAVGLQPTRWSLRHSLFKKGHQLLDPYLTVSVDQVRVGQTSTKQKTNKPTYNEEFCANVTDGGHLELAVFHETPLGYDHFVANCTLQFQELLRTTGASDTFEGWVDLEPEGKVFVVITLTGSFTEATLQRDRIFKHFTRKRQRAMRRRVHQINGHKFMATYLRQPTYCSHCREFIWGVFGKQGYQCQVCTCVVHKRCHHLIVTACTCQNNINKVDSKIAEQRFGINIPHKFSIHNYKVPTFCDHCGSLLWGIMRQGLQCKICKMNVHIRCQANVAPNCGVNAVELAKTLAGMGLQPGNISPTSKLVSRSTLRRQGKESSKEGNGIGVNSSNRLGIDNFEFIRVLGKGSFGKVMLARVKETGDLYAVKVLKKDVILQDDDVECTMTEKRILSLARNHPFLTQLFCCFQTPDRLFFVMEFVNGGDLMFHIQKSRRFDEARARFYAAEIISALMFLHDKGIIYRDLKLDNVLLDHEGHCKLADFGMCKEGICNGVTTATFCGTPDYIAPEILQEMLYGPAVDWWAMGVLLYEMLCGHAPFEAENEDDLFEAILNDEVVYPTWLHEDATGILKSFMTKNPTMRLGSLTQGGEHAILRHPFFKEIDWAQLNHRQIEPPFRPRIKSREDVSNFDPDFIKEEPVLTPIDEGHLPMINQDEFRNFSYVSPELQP
- test-summary: Kinase panel profiling at 1 µmol/L (MSA or IMAP), percentage inhibition
- Assay type: biochemical
- experimental-context: kinase PKCη; 1 µmol/L single concentration; read-out: %-inhibition at 1 µmol/L, PKCη
measured-endpoint: inhibition at 1 µM (%)
Numbers only, in %.

Worked examples follow.
CCN1C(=O)N(c2c(F)c(OC)cc(OC)c2F)Cc2cnc3[nH]c(CN4CCOCC4)cc3c21: 5
C[C@H]1Oc2cc(cnc2N)-c2c(nn(C)c2C#N)CN(C)C(=O)c2ccc(F)cc21: 0.817
Cc1cc(Nc2ncnc3ccc(NC4=NC(C)(C)CO4)cc23)ccc1Oc1ccn2ncnc2c1: -5.44
FC(F)(F)c1ccc(CNc2ccc(Cc3c[nH]c4ncc(Cl)cc34)cn2)cn1: 0.77
C[C@H](Nc1ncnc2nc[nH]c12)c1cc2cccc(Cl)c2c(=O)n1-c1ccccc1: 0.743
Cn1cnc2c(F)c(Nc3ccc(Br)cc3F)c(C(=O)NOCCO)cc21: 6

Parameters: items (list). Returns: inhibition at 1 µM for each item.
1. CCn1c(=O)c(-c2cc(NC(=O)Nc3ccccc3)c(F)cc2Br)cc2cnc(NC)cc21
2. C=CC(=O)N1CCC([C@@H]2CCNc3c(C(N)=O)c(-c4ccc(Oc5ccccc5)cc4)nn32)CC1

Completion:
0.077
4.22

* * *

- test-system: panel of 255 wild-type kinases (Homo sapiens)
- test-summary: Kinase panel profiling at 1 µmol/L (MSA or IMAP), percentage inhibition
- Format: biochemical
- experimental-context: CaMK1δ kinase assay; 1 µmol/L single concentration; read-out: %-inhibition CaMK1δ
measured-endpoint: inhibition at 1 µM (%)
Answers are plain numbers, in %.

Worked examples follow.
Cn1cnc2c(F)c(Nc3ccc(Br)cc3Cl)c(C(=O)NOCCO)cc21: -3.34
COC(=O)N[C@@H](C)CNc1nccc(-c2cn(C(C)C)nc2-c2cc(Cl)cc(NS(C)(=O)=O)c2F)n1: -7
CCN1CCN(c2ccc(Nc3cc(N(C)C(=O)Nc4c(Cl)c(OC)cc(OC)c4Cl)ncn3)cc2)CC1: 2.23
O=C(Nc1cnn2ccc(N3CCC[C@@H]3c3cc(F)ccc3F)nc12)N1CC[C@H](O)C1: 3.44
CO[C@]1(C(=O)N[C@@H](C)c2ccc(-n3cc(F)cn3)nc2)CC[C@H](c2nc(C)cc(Nc3cc(C)[nH]n3)n2)CC1: -7.54
C[C@H]1Oc2cc(cnc2N)-c2c(nn(C)c2C#N)CN(C)C(=O)c2ccc(F)cc21: 7

Parameters: items (list). Returns: inhibition at 1 µM for each item.
1. CCn1c(=O)c(-c2cc(NC(=O)Nc3ccccc3)c(F)cc2Br)cc2cnc(NC)cc21
2. C=CC(=O)N1CCC([C@@H]2CCNc3c(C(N)=O)c(-c4ccc(Oc5ccccc5)cc4)nn32)CC1
3. Cn1cnc2c(F)c(Nc3ccc(Br)cc3F)c(C(=O)NOCCO)cc21

Completion:
1: 2.32; 2: -1.26; 3: -8

Parameters: items (list). Returns: inhibition at 1 µM for each item.
1. C[C@H](Nc1ncnc2nc[nH]c12)c1cc2cccc(Cl)c2c(=O)n1-c1ccccc1
2. CCc1nc(C(N)=O)c(Nc2ccc(N3CCC(N4CCN(C)CC4)CC3)c(OC)c2)nc1NC1CCOCC1
3. CN1CCN(c2ccc(C(=O)Nc3n[nH]c4ccc(Cc5cc(F)cc(F)c5)cc34)c(NC3CCOCC3)c2)CC1
4. Cn1cc(-c2cc3c(N4CCN(c5ncc([C@@](C)(N)c6ccc(F)cc6)cn5)CC4)ncnn3c2)cn1
5. Cc1nc(NC(=O)N2CCC[C@H]2C(N)=O)sc1-c1ccnc(C(C)(C)C(F)(F)F)c1

Completion:
6
39
16
-4.32
2

Parameters: items (list). Returns: inhibition at 1 µM for each item.
1. CCN1C(=O)N(c2c(F)c(OC)cc(OC)c2F)Cc2cnc3[nH]c(CN4CCOCC4)cc3c21
2. COc1ccc(CN2C3CC2CN(c2ccc(-c4cc(OCC(C)(C)O)cn5ncc(C#N)c45)cn2)C3)cn1
3. COc1cc2ncnc(Nc3ccc(F)c(Cl)c3)c2cc1NC(=O)/C=C/CN1CCCCC1
4. Cc1cc(Nc2ncnc3ccc(NC4=NC(C)(C)CO4)cc23)ccc1Oc1ccn2ncnc2c1
5. FC(F)(F)c1ccc(CNc2ccc(Cc3c[nH]c4ncc(Cl)cc34)cn2)cn1

Completion:
1: 17; 2: 9; 3: 1.43; 4: -3.73; 5: 4

* * *

Kindly state inhibition at 1 µM for each of the entries shown.
- test-system: panel of 255 wild-type kinases (Homo sapiens)
- Sequence (O15530 1-556): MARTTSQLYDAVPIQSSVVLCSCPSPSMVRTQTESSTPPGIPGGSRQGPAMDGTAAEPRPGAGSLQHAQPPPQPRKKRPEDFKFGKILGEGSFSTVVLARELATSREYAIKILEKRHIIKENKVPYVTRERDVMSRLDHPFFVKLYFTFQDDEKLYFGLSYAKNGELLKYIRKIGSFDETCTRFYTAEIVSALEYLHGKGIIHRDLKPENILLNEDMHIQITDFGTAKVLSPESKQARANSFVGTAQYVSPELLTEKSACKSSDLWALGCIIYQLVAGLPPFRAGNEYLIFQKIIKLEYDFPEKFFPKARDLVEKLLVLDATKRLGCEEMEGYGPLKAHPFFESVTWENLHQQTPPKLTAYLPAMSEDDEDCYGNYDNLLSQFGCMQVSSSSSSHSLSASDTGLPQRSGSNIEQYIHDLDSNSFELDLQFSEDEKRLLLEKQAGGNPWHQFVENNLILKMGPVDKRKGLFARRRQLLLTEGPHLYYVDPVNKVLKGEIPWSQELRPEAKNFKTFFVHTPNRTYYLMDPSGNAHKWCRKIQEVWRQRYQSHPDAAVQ
- test-summary: Kinase panel profiling at 1 µmol/L (MSA or IMAP), percentage inhibition
- Format: biochemical
- experimental-context: kinase PDK1; 1 µmol/L single concentration; read-out: %-inhibition at 1 µmol/L, PDK1
Give bare numbers, in %.

Parameters: items (list). Returns: inhibition at 1 µM for each item.
1. C[C@H]1Oc2cc(cnc2N)-c2c(nn(C)c2C#N)CN(C)C(=O)c2ccc(F)cc21
2. Cn1cnc2c(F)c(Nc3ccc(Br)cc3F)c(C(=O)NOCCO)cc21
3. Cn1cnc2c(F)c(Nc3ccc(Br)cc3Cl)c(C(=O)NOCCO)cc21

Completion:
0.602
0.386
2.11

Parameters: items (list). Returns: inhibition at 1 µM for each item.
1. CCN1C(=O)N(c2c(F)c(OC)cc(OC)c2F)Cc2cnc3[nH]c(CN4CCOCC4)cc3c21
2. CCn1c(=O)c(-c2cc(NC(=O)Nc3ccccc3)c(F)cc2Br)cc2cnc(NC)cc21
3. COC(=O)N[C@@H](C)CNc1nccc(-c2cn(C(C)C)nc2-c2cc(Cl)cc(NS(C)(=O)=O)c2F)n1
4. CCc1nc(C(N)=O)c(Nc2ccc(N3CCC(N4CCN(C)CC4)CC3)c(OC)c2)nc1NC1CCOCC1
5. COc1ccc(CN2C3CC2CN(c2ccc(-c4cc(OCC(C)(C)O)cn5ncc(C#N)c45)cn2)C3)cn1

Completion:
1. 0.293
2. -7
3. -2.17
4. -1.87
5. 7

* * *

Kindly state inhibition at 1 µM for each of the entries shown.
- test-system: panel of 255 wild-type kinases (Homo sapiens, UniProt Q13164)
- Sequence (Q13164 whole entry): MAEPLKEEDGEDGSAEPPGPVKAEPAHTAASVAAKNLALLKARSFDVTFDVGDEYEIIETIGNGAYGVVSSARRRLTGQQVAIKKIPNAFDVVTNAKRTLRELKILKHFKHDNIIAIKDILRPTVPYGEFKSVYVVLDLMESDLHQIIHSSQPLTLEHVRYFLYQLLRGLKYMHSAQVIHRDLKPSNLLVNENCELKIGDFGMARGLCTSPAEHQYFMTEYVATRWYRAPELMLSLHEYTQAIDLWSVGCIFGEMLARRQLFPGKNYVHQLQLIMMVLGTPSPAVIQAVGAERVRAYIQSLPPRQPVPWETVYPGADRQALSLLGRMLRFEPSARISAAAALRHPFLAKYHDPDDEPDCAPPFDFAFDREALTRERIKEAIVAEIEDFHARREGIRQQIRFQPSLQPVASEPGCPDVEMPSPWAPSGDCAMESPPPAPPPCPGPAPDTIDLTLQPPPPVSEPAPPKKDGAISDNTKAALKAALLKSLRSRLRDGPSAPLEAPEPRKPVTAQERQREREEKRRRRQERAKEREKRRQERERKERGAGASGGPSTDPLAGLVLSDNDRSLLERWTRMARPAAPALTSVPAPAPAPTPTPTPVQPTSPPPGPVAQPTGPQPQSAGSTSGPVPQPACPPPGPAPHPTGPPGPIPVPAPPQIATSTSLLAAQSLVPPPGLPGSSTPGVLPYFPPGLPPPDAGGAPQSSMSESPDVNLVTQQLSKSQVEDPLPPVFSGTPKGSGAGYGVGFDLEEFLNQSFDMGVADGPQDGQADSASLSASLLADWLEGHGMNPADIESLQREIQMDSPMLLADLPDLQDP
- test-summary: Kinase panel profiling at 1 µmol/L (MSA or IMAP), percentage inhibition
- Format: biochemical
- experimental-context: kinase Erk5; 1 µmol/L single concentration; read-out: %-inhibition at 1 µmol/L, Erk5
One number for each entry, in %.

Cn1cc(-c2cc3c(N4CCN(c5ncc([C@@](C)(N)c6ccc(F)cc6)cn5)CC4)ncnn3c2)cn1 [avapritinib]: 1.78

Parameters: items (list). Returns: inhibition at 1 µM for each item.
1. CCc1nc(C(N)=O)c(Nc2ccc(N3CCC(N4CCN(C)CC4)CC3)c(OC)c2)nc1NC1CCOCC1 [gilteritinib]
2. Cn1cnc2c(F)c(Nc3ccc(Br)cc3F)c(C(=O)NOCCO)cc21 [binimetinib]

Completion:
1. 38
2. -0.05

* * *

Kindly state inhibition at 1 µM for each of the entries shown.
- test-system: UniProtKB P41743
- Sequence (P41743 whole entry): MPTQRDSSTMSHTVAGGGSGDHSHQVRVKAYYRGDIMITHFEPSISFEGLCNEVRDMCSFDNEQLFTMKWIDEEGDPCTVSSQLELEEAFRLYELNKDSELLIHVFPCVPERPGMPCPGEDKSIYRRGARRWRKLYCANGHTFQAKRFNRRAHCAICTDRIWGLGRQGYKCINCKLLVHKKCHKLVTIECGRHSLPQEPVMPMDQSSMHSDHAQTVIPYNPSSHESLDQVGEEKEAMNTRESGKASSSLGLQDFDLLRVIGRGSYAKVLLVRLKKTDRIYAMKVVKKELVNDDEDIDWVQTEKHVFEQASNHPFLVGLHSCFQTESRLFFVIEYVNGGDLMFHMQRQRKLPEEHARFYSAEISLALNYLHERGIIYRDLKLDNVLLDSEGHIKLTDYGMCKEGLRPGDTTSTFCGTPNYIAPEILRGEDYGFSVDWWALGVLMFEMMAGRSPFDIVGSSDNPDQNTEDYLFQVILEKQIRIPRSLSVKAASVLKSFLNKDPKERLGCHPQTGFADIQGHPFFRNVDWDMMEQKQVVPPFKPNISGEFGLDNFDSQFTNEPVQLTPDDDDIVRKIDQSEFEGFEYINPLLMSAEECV
- test-summary: Kinase panel profiling at 1 µmol/L (MSA or IMAP), percentage inhibition
- Assay type: biochemical
- experimental-context: kinase PKCι; 1 µmol/L single concentration; read-out: %-inhibition at 1 µmol/L, PKCι
Answers are plain numbers, in %.

Worked examples follow.
CCc1nc(C(N)=O)c(Nc2ccc(N3CCC(N4CCN(C)CC4)CC3)c(OC)c2)nc1NC1CCOCC1 [gilteritinib]: 28
Cc1cc(Nc2ncnc3ccc(NC4=NC(C)(C)CO4)cc23)ccc1Oc1ccn2ncnc2c1 [tucatinib]: -2.24

Parameters: items (list). Returns: inhibition at 1 µM for each item.
1. C[C@H](Nc1ncnc2nc[nH]c12)c1cc2cccc(Cl)c2c(=O)n1-c1ccccc1 [duvelisib]
2. Cn1cnc2c(F)c(Nc3ccc(Br)cc3F)c(C(=O)NOCCO)cc21 [binimetinib]
3. CCN1CCN(c2ccc(Nc3cc(N(C)C(=O)Nc4c(Cl)c(OC)cc(OC)c4Cl)ncn3)cc2)CC1 [infigratinib]

Completion:
18
15
-10

Parameters: items (list). Returns: inhibition at 1 µM for each item.
1. FC(F)(F)c1ccc(CNc2ccc(Cc3c[nH]c4ncc(Cl)cc34)cn2)cn1 [pexidartinib]
2. COC(=O)N[C@@H](C)CNc1nccc(-c2cn(C(C)C)nc2-c2cc(Cl)cc(NS(C)(=O)=O)c2F)n1 [encorafenib]
3. COc1ccc(CN2C3CC2CN(c2ccc(-c4cc(OCC(C)(C)O)cn5ncc(C#N)c45)cn2)C3)cn1 [selpercatinib]
4. CN1CCN(c2ccc(C(=O)Nc3n[nH]c4ccc(Cc5cc(F)cc(F)c5)cc34)c(NC3CCOCC3)c2)CC1 [entrectinib]
5. C[C@H]1Oc2cc(cnc2N)-c2c(nn(C)c2C#N)CN(C)C(=O)c2ccc(F)cc21 [lorlatinib]
6. COc1cc2ncnc(Nc3ccc(F)c(Cl)c3)c2cc1NC(=O)/C=C/CN1CCCCC1 [dacomitinib]
7. CO[C@]1(C(=O)N[C@@H](C)c2ccc(-n3cc(F)cn3)nc2)CC[C@H](c2nc(C)cc(Nc3cc(C)[nH]n3)n2)CC1 [pralsetinib]

Completion:
1: 23; 2: -1.18; 3: -0.803; 4: 34; 5: 19; 6: 31; 7: -7.5
